Test system: adults and nymphal stages of the two-spotted mite
Experiment: Mite Foliage Spray Test
Format: in vivo, Tetranychus urticae (Koch)
Design: key: 1: no mortality; 3: an approximately 50% mortality; 5: 100% mortality
Settings: 4 days
Excerpt: The test procedures were as follows: Compositions were rated on the basis of percent kill with a rating of 1 indicating no mortality; 3 signifying an approximately 50% mortality and 5 indicating 100% mortality at the indicated dosage.

[
  {
    "molecule": "CNC(=O)N(C)C(=O)OC1=C(c2c(C)cc(C)cc2C)C(=O)c2ccccc21",
    "Mite Adult rating": 1
  },
  {
    "molecule": "CSCC(=O)OC1=C(c2c(C)cc(C)cc2C)C(=O)c2ccccc21",
    "Mite Adult rating": "5 (100% mortality)"
  },
  {
    "molecule": "CC(=O)OC1=C(c2c(C)cc(C)cc2C)C(=O)c2ccccc21",
    "Mite Adult rating": "5 (100% mortality)"
  },
  {
    "molecule": "CCCCN(CCCC)C(=O)OC1=C(c2c(C)cc(C)cc2C)C(=O)c2ccccc21",
    "Mite Adult rating": "3 (an approximately 50% mortality)"
  },
  {
    "molecule": "CCCCCCCCCCCC(=O)OC1=C(c2c(C)cc(C)cc2C)C(=O)c2ccccc21",
    "Mite Adult rating": "5 (100% mortality)"
  },
  {
    "molecule": "Cc1ccc(C(=O)OC2=C(c3c(Cl)cccc3Cl)C(=O)c3ccccc32)c(C)c1",
    "Mite Adult rating": 1
  },
  {
    "molecule": "O=C(OC1=C(c2c(Cl)cccc2Cl)C(=O)c2ccccc21)c1ccc(Cl)cc1",
    "Mite Adult rating": "5 (100% mortality)"
  },
  {
    "molecule": "Cc1cc(C)c(C2=C(OC(=O)OC(C)C)c3ccccc3C2=O)c(C)c1",
    "Mite Adult rating": "5 (100% mortality)"
  },
  {
    "molecule": "O=C(OC1=C(c2c(Cl)cccc2Cl)C(=O)c2ccccc21)c1ccc(Cl)c(Cl)c1",
    "Mite Adult rating": "5 (100% mortality)"
  },
  {
    "molecule": "CC(C)c1ccc(C2=C(OC(=O)C(C)(C)C)c3ccccc3C2=O)cc1",
    "Mite Adult rating": 1
  },
  {
    "molecule": "CC(=O)OC1=C(c2ccccc2Br)C(=O)c2ccccc21",
    "Mite Adult rating": "5 (100% mortality)"
  },
  {
    "molecule": "Cc1cc(C)c(C2=C(OC(=O)C(C)(C)C)c3ccccc3C2=O)c(C)c1",
    "Mite Adult rating": "5 (100% mortality)"
  },
  {
    "molecule": "CC(C)(C)C(=O)OC1=C(c2ccccc2Cl)C(=O)c2ccccc21",
    "Mite Adult rating": "5 (100% mortality)"
  },
  {
    "molecule": "O=C(OC1=C(c2c(Cl)cccc2Cl)C(=O)c2ccccc21)c1cc(Cl)cc(Cl)c1",
    "Mite Adult rating": "5 (100% mortality)"
  },
  {
    "molecule": "CCc1cccc(C)c1C1=C(OC(=O)C(C)(C)C)c2ccccc2C1=O",
    "Mite Adult rating": "5 (100% mortality)"
  },
  {
    "molecule": "CCC(=O)OC1=C(c2c(C)cc(C)cc2C)C(=O)c2ccccc21",
    "Mite Adult rating": "5 (100% mortality)"
  },
  {
    "molecule": "O=C(OC1=C(c2c(Cl)cccc2Cl)C(=O)c2ccccc21)c1ccccc1",
    "Mite Adult rating": "5 (100% mortality)"
  },
  {
    "molecule": "COc1cccc(C(=O)OC2=C(c3c(C)cc(C)cc3C)C(=O)c3ccccc32)c1",
    "Mite Adult rating": "5 (100% mortality)"
  },
  {
    "molecule": "Cc1cc(C)c(C2=C(OC(=O)N(C)C)c3ccccc3C2=O)c(C)c1",
    "Mite Adult rating": "3 (an approximately 50% mortality)"
  },
  {
    "molecule": "CCCCN(C)C(=O)OC1=C(c2c(C)cc(C)cc2C)C(=O)c2ccccc21",
    "Mite Adult rating": 1
  },
  {
    "molecule": "Cc1cc(C)c(C2=C(OC(=O)c3ccc(Cl)cc3Cl)c3ccccc3C2=O)c(C)c1",
    "Mite Adult rating": "5 (100% mortality)"
  },
  {
    "molecule": "Cc1cc(C)c(C2=C(OC(=O)c3ccc(Cl)cc3)c3ccccc3C2=O)c(C)c1",
    "Mite Adult rating": "5 (100% mortality)"
  },
  {
    "molecule": "CCCCCCCCCCCCCCCC(=O)OC1=C(c2ccc(C(C)C)cc2)C(=O)c2ccccc21",
    "Mite Adult rating": 1
  },
  {
    "molecule": "COc1cc(C)c(C2=C(OC(=O)C(C)(C)C)c3ccccc3C2=O)c(C)c1",
    "Mite Adult rating": "3 (an approximately 50% mortality)"
  },
  {
    "molecule": "Cc1cc(C)c(NC(=O)OC2=C(c3c(C)cc(C)cc3C)C(=O)c3ccccc32)c(C)c1",
    "Mite Adult rating": "5 (100% mortality)"
  },
  {
    "molecule": "COc1cccc(C(=O)OC2=C(c3c(Cl)cccc3Cl)C(=O)c3ccccc32)c1",
    "Mite Adult rating": "5 (100% mortality)"
  },
  {
    "molecule": "Cc1cc(C)c(C2=C(OC(=O)COc3ccc(Cl)cc3Cl)c3ccccc3C2=O)c(C)c1",
    "Mite Adult rating": "5 (100% mortality)"
  },
  {
    "molecule": "CC(C)(C)C(=O)OC1=C(c2ccc(Cl)cc2)C(=O)c2ccccc21",
    "Mite Adult rating": 1
  },
  {
    "molecule": "CC(C)(C)C(=O)OC1=C(c2ccccc2Br)C(=O)c2ccccc21",
    "Mite Adult rating": "5 (100% mortality)"
  },
  {
    "molecule": "Cc1cc(C)c(C2=C(OC(=O)N3CCCCC3)c3ccccc3C2=O)c(C)c1",
    "Mite Adult rating": 1
  },
  {
    "molecule": "CC(C)(C)C(=O)OC1=C(c2ccccc2C(F)(F)F)C(=O)c2ccccc21",
    "Mite Adult rating": 1
  },
  {
    "molecule": "Cc1cc(C)c(C2=C(OC(=O)c3ccccc3Cl)c3ccccc3C2=O)c(C)c1",
    "Mite Adult rating": "5 (100% mortality)"
  },
  {
    "molecule": "O=C1C(c2c(Cl)cccc2Cl)=C(OC(=O)c2c(Cl)cccc2Cl)c2ccccc21",
    "Mite Adult rating": 1
  },
  {
    "molecule": "CCCC(C)C(=O)OC1=C(c2ccccc2Cl)C(=O)c2ccccc21 (stereo not drawn)",
    "Mite Adult rating": "5 (100% mortality)"
  },
  {
    "molecule": "Cc1cc(C)c(C2=C(OC(=O)c3cccs3)c3ccccc3C2=O)c(C)c1",
    "Mite Adult rating": "5 (100% mortality)"
  },
  {
    "molecule": "CCCCC(CC)C(=O)OC1=C(c2ccccc2F)C(=O)c2ccccc21 (stereo not drawn)",
    "Mite Adult rating": "3 (an approximately 50% mortality)"
  },
  {
    "molecule": "Cc1cccc(C)c1C(=O)OC1=C(c2c(Cl)cccc2Cl)C(=O)c2ccccc21",
    "Mite Adult rating": 1
  },
  {
    "molecule": "Cc1cc(C)c(C2=C(OC(=O)c3ccc([N+](=O)[O-])cc3)c3ccccc3C2=O)c(C)c1",
    "Mite Adult rating": "5 (100% mortality)"
  },
  {
    "molecule": "Cc1cc(C(C)(C)C)cc(C)c1C1=C(OC(=O)C(C)(C)C)c2ccccc2C1=O",
    "Mite Adult rating": 1
  }
]

----------
Catalogue of Herbicide (total preemergence rating) readings, one per entry.
system: Perennial rye grass, crabgrass, red root pigweed, mustard; assay: Preliminary Herbicide Seed Germination Test; conditions: rating/maximum 20: 100 ppm only, four species, each rated 1 (no injury) to 5 (no seedlings emerged)

[
  {
    "compound": "CCC(CC)C(=O)OC1=C(c2ccc(C(C)C)cc2)C(=O)c2ccccc21",
    "testSystem": "Perennial rye grass, crabgrass, red root pigweed, mustard",
    "Herbicide (total preemergence rating)": "4/20"
  },
  {
    "compound": "CC=CCCCCCCCC(=O)OC1=C(c2c(C)cc(C)cc2C)C(=O)c2ccccc21",
    "testSystem": "Perennial rye grass, crabgrass, red root pigweed, mustard",
    "Herbicide (total preemergence rating)": "19/20"
  },
  {
    "compound": "Cc1cc(C)c(C2=C(OC(=O)N3CCCCC3)c3ccccc3C2=O)c(C)c1",
    "testSystem": "Perennial rye grass, crabgrass, red root pigweed, mustard",
    "Herbicide (total preemergence rating)": "4/20"
  },
  {
    "compound": "CCCCC(CC)C(=O)OC1=C(c2ccccc2)C(=O)c2ccccc21 (stereo not shown)",
    "testSystem": "Perennial rye grass, crabgrass, red root pigweed, mustard",
    "Herbicide (total preemergence rating)": "4/20"
  },
  {
    "compound": "Cc1cc(C)c(C2=C(OC(=O)c3cccnc3)c3ccccc3C2=O)c(C)c1",
    "testSystem": "Perennial rye grass, crabgrass, red root pigweed, mustard",
    "Herbicide (total preemergence rating)": "18/20"
  },
  {
    "compound": "Cc1cc(C)c(C2=C(OC(=O)N(C)C3CCCCC3)c3ccccc3C2=O)c(C)c1",
    "testSystem": "Perennial rye grass, crabgrass, red root pigweed, mustard",
    "Herbicide (total preemergence rating)": "16/20"
  },
  {
    "compound": "CCCCCCCCCCCCCCCC(=O)OC1=C(c2ccccc2C)C(=O)c2ccccc21",
    "testSystem": "Perennial rye grass, crabgrass, red root pigweed, mustard",
    "Herbicide (total preemergence rating)": "4/20"
  }
]
